From: paper PMC4791575

tested on: HepG2 cells; assay: HepG2 host cell toxicity assay; assay type: cell-based; details: HepG2, purchased inhibitors, Table 3

SMILES_STRUCTURE	INEQUALITY_SIGN	host cell tox HepG2 pTC50
CCc1cc(Nc2nccc(-c3c(-c4ccc(OC)c(C(=O)Nc5c(F)cccc5F)c4)nc4ccccn34)n2)c(OC)cc1N1CCC(N2CCN(S(C)(=O)=O)CC2)CC1	<	4.4
CC[C@@H]1C(=O)N(C)c2cnc(Nc3ccc(C(=O)NC4CCN(C)CC4)cc3OC)nc2N1C1CCCC1	=	5.6
CC[C@@H]1C(=O)N(C)c2cnc(Nc3ccc(C(=O)N[C@H]4CC[C@H](N5CCN(CC6CC6)CC5)CC4)cc3OC)nc2N1C(C)C	=	5.5
O=C(NC1CCNCC1)c1n[nH]cc1NC(=O)c1c(Cl)cccc1Cl	<	4.4
Nc1nc(NCCNc2ncc(-c3ncc[nH]3)c(-c3ccc(Cl)cc3Cl)n2)ccc1[N+](=O)[O-]	=	4.8
Nc1cccc(-c2cc3c(Oc4cccc(O)c4)ncnc3[nH]2)c1	<	4.4
O=c1sn(-c2cccc3ccccc23)c(=O)n1Cc1ccccc1	<	4.4

----------
tested on: P. falciparum D6; assay: microbe, parasite or virus in culture; format: cell-based, Plasmodium falciparum; details: Plasmodium falciparum, D6, read-out: P. falciparum D6 pEC50 (converted)

SMILES_STRUCTURE	EC50 [µM]
Nc1nc(Nc2ccc(S(N)(=O)=O)cc2)nn1C(=O)c1c(F)cccc1F	2
CC(C)CC(=O)Nc1[nH]nc2c1CN(C(=O)C1CCN(C)CC1)C2(C)C	2
CN1CC[C@H](c2c(O)cc(O)c3c(=O)cc(-c4ccccc4Cl)oc23)[C@H](O)C1	2
